- Target Of Assay: purified human HDAC6 (Homo sapiens, UniProt Q9UBN7)
- Construct: purchased BPS Bioscience 5006
- Sequence (Q9UBN7 whole entry): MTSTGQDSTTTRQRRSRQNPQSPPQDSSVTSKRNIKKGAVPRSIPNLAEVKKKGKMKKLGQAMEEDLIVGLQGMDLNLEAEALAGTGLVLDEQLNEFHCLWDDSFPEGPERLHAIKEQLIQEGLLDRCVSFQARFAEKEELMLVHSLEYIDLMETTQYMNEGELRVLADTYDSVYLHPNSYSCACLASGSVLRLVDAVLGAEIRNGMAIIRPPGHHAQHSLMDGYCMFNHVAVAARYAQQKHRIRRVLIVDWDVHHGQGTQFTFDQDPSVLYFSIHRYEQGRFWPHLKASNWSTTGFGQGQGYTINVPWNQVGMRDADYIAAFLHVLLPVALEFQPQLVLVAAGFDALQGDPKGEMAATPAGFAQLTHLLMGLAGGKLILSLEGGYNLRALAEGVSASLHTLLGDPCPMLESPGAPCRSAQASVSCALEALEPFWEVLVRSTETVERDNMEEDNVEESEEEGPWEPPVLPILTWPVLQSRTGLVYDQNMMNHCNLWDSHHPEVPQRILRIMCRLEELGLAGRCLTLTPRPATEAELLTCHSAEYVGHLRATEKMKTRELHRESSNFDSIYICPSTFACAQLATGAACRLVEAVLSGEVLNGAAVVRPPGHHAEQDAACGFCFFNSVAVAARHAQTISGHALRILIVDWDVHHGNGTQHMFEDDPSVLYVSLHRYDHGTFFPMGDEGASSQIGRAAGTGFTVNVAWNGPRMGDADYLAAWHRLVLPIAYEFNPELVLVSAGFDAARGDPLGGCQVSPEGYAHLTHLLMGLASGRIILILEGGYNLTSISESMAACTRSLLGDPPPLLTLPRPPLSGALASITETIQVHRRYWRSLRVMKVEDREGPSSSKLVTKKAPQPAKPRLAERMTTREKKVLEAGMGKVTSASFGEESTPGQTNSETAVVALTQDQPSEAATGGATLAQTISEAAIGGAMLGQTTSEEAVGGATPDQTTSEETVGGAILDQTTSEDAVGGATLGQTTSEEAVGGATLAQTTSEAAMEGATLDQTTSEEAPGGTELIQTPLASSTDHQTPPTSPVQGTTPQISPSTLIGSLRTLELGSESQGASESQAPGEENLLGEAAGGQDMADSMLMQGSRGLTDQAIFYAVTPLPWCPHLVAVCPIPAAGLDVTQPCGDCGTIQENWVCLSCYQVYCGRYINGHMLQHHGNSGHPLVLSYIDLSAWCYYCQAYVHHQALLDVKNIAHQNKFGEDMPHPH
- Method: HDAC6 enzyme assay
- Assay type: biochemical
- Conditions Used: bins: greater than 1 μM and less than 10 μM; greater than 10 μM
Endpoint Name: IC50

Field: example entries. Status: answers known.
CC(C)(C)c1ccc(C(=O)N2CCCn3cc(C(=O)NO)cc3C2)cc1
1 to 10 µM
CC(C)(C)C(=O)N1CCn2cc(C(=O)NO)nc2C1
1 to 10 µM
O=C(NO)c1cc2n(c1)CCCN(C(=O)C1(c3ccc(Cl)cc3)CC1)C2
1 to 10 µM

Reported purified human HDAC6 (Homo sapiens, UniProt Q9UBN7) IC50 for item CC(C)(C)C(=O)N1CCn2nc(C(=O)NO)cc2C1 was > 10 µM

Reported purified human HDAC6 (Homo sapiens, UniProt Q9UBN7) IC50 for item O=C(NO)c1cc2n(c1)CCCN(C(=O)c1ccc(Cl)cc1)C2 was 1 to 10 µM

Reported purified human HDAC6 (Homo sapiens, UniProt Q9UBN7) IC50 for item CCCCN1CCn2cc(C(=O)NO)cc2C1 was > 10 µM

Reported purified human HDAC6 (Homo sapiens, UniProt Q9UBN7) IC50 for item Cc1nc(C(=O)N2CCn3cc(C(=O)NO)cc3C2)cs1 was > 10 µM

Reported purified human HDAC6 (Homo sapiens, UniProt Q9UBN7) IC50 for item O=C(NO)c1cc2n(n1)CCCN(C(=O)C13CC4CC(CC(C4)C1)C3)C2 was 1 to 10 µM

----------
// reported IC50 for each item listed
- Target Of Assay: purified human HDAC6 (Homo sapiens, UniProt Q9UBN7)
- Construct: purchased BPS Bioscience 5006
- Method: HDAC6 enzyme assay
- Format: biochemical
- Conditions Used: bin: less than 100 nM

Cc1cc(C(=O)N2CCn3cc(C(=O)NO)cc3C2)c(C)o1
< 100 nM
O=C(NO)c1cc2n(c1)CCN(C(=O)c1c[nH]c3ccccc13)C2
< 100 nM
Cc1cc(C(=O)N2CCn3cc(C(=O)NO)cc3C2)c(C)n1Cc1cccs1
< 100 nM
Cn1c(C(=O)N2CCn3cc(C(=O)NO)cc3C2)cc(Cl)c1Cl
< 100 nM

Then there is this molecule:
Quick note, IC50 for O=C(NO)c1cn2c(n1)CN(C(=O)c1cc3ccccc3s1)CC2 landed at < 100 nM

----------
// reported IC50 for each item listed
- Target Of Assay: purified human HDAC6 (Homo sapiens)
- Construct: purchased BPS Bioscience 5006
- Method: HDAC6 enzyme assay
- Type: biochemical
- Conditions Used: bins: greater than 1 μM and less than 10 μM; greater than 10 μM

Field: example entries. Status: answers known.
Cc1nc(C(=O)N2CCn3cc(C(=O)NO)nc3C2)cs1 [Compound I-55]
1 to 10 µM
Cn1cccc1C(=O)N1CCCn2nc(C(=O)NO)cc2C1 [Compound I-71]
> 10 µM
O=C(NO)c1cc2n(c1)CCCN(C(=O)C13CC4CC(CC(C4)C1)C3)C2 [Compound I-38]
1 to 10 µM

Quick note, IC50 for COc1ccc(C(=O)N2CCCn3nc(C(=O)NO)cc3C2)cc1 [Compound I-53] landed at > 10 µM

Quick note, IC50 for Cn1nc(C(C)(C)C)cc1C(=O)N1CCCn2cc(C(=O)NO)cc2C1 [Compound I-63] landed at 1 to 10 µM
